- System: passive cutaneous anaphylaxis (PCA) reaction
- Test Summary: passive cutaneous anaphylaxis (PCA) test, i.v. or oral administration
- Type: in vivo, male Charles River Wistar rats
- Experimental Conditions: Rattus norvegicus, iv; I.V., 0.03 mg/kg; read-out: degree (%) of protection, PCA test
Short version: inhibition in vivo at 0.03 mg/kg at least 10% is Yes, less is No.

| Molecule | Class Assignment |
| --- | --- |
| CCOC(=O)c1nc2nc3ccc([S+](C)[O-])cc3cc2c(=O)[nH]1 (centres unmarked) | No |
| CCOC(=O)c1nc2nc3ccc(SC)cc3cc2c(=O)[nH]1 | No |
| COc1cc2cc3c(=O)[nH]c(C(=O)OCCO)nc3nc2cc1OC | Yes |
| CCOC(=O)c1nc2nc3c(OC)cc(OC)cc3cc2c(=O)[nH]1 | Yes |
| CCCCOC(=O)c1nc2nc3cc(OC)c(OC)cc3cc2c(=O)[nH]1 | Yes |
| CCOC(=O)c1nc2nc3ccccc3cc2c(=O)[nH]1 | Yes |
| CCOC(=O)c1nc2nc3cc(OC)c(OC)cc3cc2c(=O)[nH]1 | Yes |
| CCOC(=O)c1nc2nc3c(OC)c(OC)c(OC)cc3cc2c(=O)[nH]1 | Yes |

* * *

- Test system: passive cutaneous anaphylaxis (PCA) reaction
- Test Summary: passive cutaneous anaphylaxis (PCA) test, i.v. or oral administration
- Format: in vivo, male Charles River Wistar rats
- Experimental Conditions: Rattus norvegicus, iv; I.V., 3 mg/kg; read-out: degree (%) of protection, PCA test
Counter-ions that a name gives are not always drawn.
Quick list: inhibition in vivo at 3 mg/kg per entry.
Parameter Measured: inhibition in vivo at 3 mg/kg (%)

| Compound | Measured Target | Parameter Measured | Unit Tag | Reading |
| --- | --- | --- | --- | --- |
| CCOC(=O)c1nc2nc3cc(OCC)c(OCC)cc3cc2c(=O)[nH]1 | passive cutaneous anaphylaxis (PCA) reaction | inhibition in vivo at 3 mg/kg | % | 100 |
| CCOC(=O)c1nc2nc3c(OC)ccc(OC)c3cc2c(=O)[nH]1 | passive cutaneous anaphylaxis (PCA) reaction | inhibition in vivo at 3 mg/kg | % | 100 |
| CCCCOC(=O)c1nc2nc3cc(OC)c(O)cc3cc2c(=O)[nH]1 [COO-(n-C4 H9)/H/H/OH/OCH3/H, trifluoroacetate] | passive cutaneous anaphylaxis (PCA) reaction | inhibition in vivo at 3 mg/kg | % | 100 |
| CCOC(=O)c1nc2nc3cc4c(cc3cc2c(=O)[nH]1)OCCO4 | passive cutaneous anaphylaxis (PCA) reaction | inhibition in vivo at 3 mg/kg | % | 72 |
| CCOC(=O)c1nc2nc3c(OC)c(OC)c(OC)cc3cc2c(=O)[nH]1 | passive cutaneous anaphylaxis (PCA) reaction | inhibition in vivo at 3 mg/kg | % | 88 |
| CCOC(=O)c1nc2nc3ccc([S+](C)[O-])cc3cc2c(=O)[nH]1 (stereo not shown) | passive cutaneous anaphylaxis (PCA) reaction | inhibition in vivo at 3 mg/kg | % | 100 |
| CCOC(=O)c1nc2nc3cc(OCc4ccccc4)c(OC)cc3cc2c(=O)[nH]1 | passive cutaneous anaphylaxis (PCA) reaction | inhibition in vivo at 3 mg/kg | % | 94 |

* * *

- Test system: passive cutaneous anaphylaxis (PCA) reaction
- Test Summary: passive cutaneous anaphylaxis (PCA) test, i.v. or oral administration
- Assay type: in vivo, male Charles River Wistar rats
- Experimental Conditions: Rattus norvegicus, iv; I.V., 0.003 mg/kg; read-out: degree (%) of protection, PCA test
Where a name gives a salt, the structure may show the parent alone.
Field: class. Source value: inhibition in vivo at 0.003 mg/kg. Ranges: lower band = under 40%, central band = from 40% up to 60%, upper band = 60% and over

| Molecule | Class Assignment |
| --- | --- |
| CCOC(=O)c1nc2nc3cc(OC)c(OC)cc3cc2c(=O)[nH]1 | lower band |
| CCCCOC(=O)c1nc2nc3cc(OC)c(O)cc3cc2c(=O)[nH]1 [COO-(n-C4 H9)/H/H/OH/OCH3/H, trifluoroacetate] | central band |
| CCOC(=O)c1nc2nc3cc(OCC)c(OC)cc3cc2c(=O)[nH]1 | upper band |
| COc1cc2nc3nc(C(=O)O)[nH]c(=O)c3cc2cc1O | upper band |
| CCOC(=O)c1nc2nc3cc(OC)c(OCC)cc3cc2c(=O)[nH]1 | central band |
| CCOC(=O)c1nc2nc3cc(OCC)c(OCC)cc3cc2c(=O)[nH]1 | lower band |
| CCOC(=O)c1nc2nc3cc(OC)c(O)cc3cc2c(=O)[nH]1 [COOC2 H5/H/H/OH/OCH3/H, Trifluoroacetate] | upper band |
| O=C(O)c1nc2nc3ccc(O)cc3cc2c(=O)[nH]1 | lower band |
| CCCCOC(=O)c1nc2nc3cc(OC)c(OC)cc3cc2c(=O)[nH]1 | upper band |
| CCOC(=O)c1nc2nc3cc(O)c(OC)cc3cc2c(=O)[nH]1 | lower band |

* * *

- System: passive cutaneous anaphylaxis (PCA) reaction
- Test Summary: passive cutaneous anaphylaxis (PCA) test, i.v. or oral administration
- Format: in vivo, male Charles River Wistar rats
- Experimental Conditions: Rattus norvegicus; Oral, 1 mg/kg; read-out: degree (%) of protection, PCA test
- Protocol: In the PCA test, normal animals are injected intradermally (i.d.) with antibodies contained in serum obtained from actively sensitized animals. The animals are then challenged intravenously with antigen mixed with a dye such as Evans' Blue. […] The test animals are then asphyxiated and the intensity of the reaction determined by measuring the diameter and intensity of the blue coloration on the inner surface of the animals skin. […]
Quick list: inhibition in vivo at 1 mg/kg per entry.

| Mol Smiles | Measured Target | Unit Tag | inhibition in vivo at 1 mg/kg |
| --- | --- | --- | --- |
| COc1cc2cc3c(=O)[nH]c(C)nc3nc2cc1OC | passive cutaneous anaphylaxis (PCA) reaction | % | 43 |
| CCCCOc1cc2nc3nc(C(=O)OCC)[nH]c(=O)c3cc2cc1OCC | passive cutaneous anaphylaxis (PCA) reaction | % | 3 |
| CCOC(=O)c1nc2nc3cc(OC)c(OCC)cc3cc2c(=O)[nH]1 | passive cutaneous anaphylaxis (PCA) reaction | % | 76 |
| CCOC(=O)c1nc2nc3cc(OCC)c(OCC)cc3cc2c(=O)[nH]1 | passive cutaneous anaphylaxis (PCA) reaction | % | 40 |
| CCOC(=O)c1nc2nc3ccc(SC)cc3cc2c(=O)[nH]1 | passive cutaneous anaphylaxis (PCA) reaction | % | 0 |
| CCOC(=O)c1nc2nc3cc(OC)c(OC)cc3cc2c(=O)[nH]1 | passive cutaneous anaphylaxis (PCA) reaction | % | 51 |
| CCOC(=O)c1nc2nc3cc(OCC)c(OC)cc3cc2c(=O)[nH]1 | passive cutaneous anaphylaxis (PCA) reaction | % | 44 |
| CCOC(=O)c1nc2nc3ccccc3cc2c(=O)[nH]1 | passive cutaneous anaphylaxis (PCA) reaction | % | 12 |
| CCOC(=O)c1nc2nc3ccccc3c(-c3ccccc3)c2c(=O)[nH]1 | passive cutaneous anaphylaxis (PCA) reaction | % | 0 |

* * *

- Test system: passive cutaneous anaphylaxis (PCA) reaction
- Test Summary: passive cutaneous anaphylaxis (PCA) test, i.v. or oral administration
- Type: in vivo, male Charles River Wistar rats
- Experimental Conditions: Rattus norvegicus; Oral, 30 mg/kg; read-out: degree (%) of protection, PCA test

| Compound | inhibition in vivo at 30 mg/kg, % |
| --- | --- |
| CCOC(=O)c1nc2nc3cc(OCc4ccccc4)c(OCC)cc3cc2c(=O)[nH]1 | 0 |
| CCOC(=O)c1nc2nc3c(OC)ccc(OC)c3cc2c(=O)[nH]1 | 23 |
| CCOC(=O)c1nc2nc3ccc([S+](C)[O-])cc3cc2c(=O)[nH]1 (stereo not shown) | 12 |
| CCOC(=O)c1nc2nc3cccc(Cl)c3cc2c(=O)[nH]1 | 57 |
| CCCCOC(=O)c1nc2nc3cc(OC)c(OC)cc3cc2c(=O)[nH]1 | 81 |
| CCCCOC(=O)c1nc2nc3ccccc3cc2c(=O)[nH]1 | 50 |
| CCOC(=O)c1nc2nc3cc(OCC)c(OC)cc3cc2c(=O)[nH]1 | 80 |

* * *

- Test system: passive cutaneous anaphylaxis (PCA) reaction
- Test Summary: passive cutaneous anaphylaxis (PCA) test, i.v. or oral administration
- Format: in vivo, male Charles River Wistar rats
- Experimental Conditions: Rattus norvegicus, iv; I.V., 0.03 mg/kg; read-out: degree (%) of protection, PCA test
Quick list: inhibition in vivo at 0.03 mg/kg per entry.
Parameter Measured: inhibition in vivo at 0.03 mg/kg (%)

| Mol Smiles | Unit Tag | Reading |
| --- | --- | --- |
| CCCCOC(=O)c1nc2nc3ccccc3cc2c(=O)[nH]1 | % | 6 |
| CCOC(=O)c1nc2nc3cc(OC)ccc3cc2c(=O)[nH]1 | % | 0 |
| CCCCOc1cc2nc3nc(C(=O)OCC)[nH]c(=O)c3cc2cc1OCC | % | 0 |
| CCOC(=O)c1nc2nc3cc(OCC)c(OC)cc3cc2c(=O)[nH]1 | % | 85 |
| CCOC(=O)c1nc2nc3c(OC)ccc(OC)c3cc2c(=O)[nH]1 | % | 0 |
| CCOC(=O)c1nc2nc3ccc(O)cc3cc2c(=O)[nH]1 | % | 21 |
| CCOC(=O)c1nc2nc3ccc(F)cc3cc2c(=O)[nH]1 | % | 0 |
| CCCCOC(=O)c1nc2nc3cc(OC)c(OCc4ccccc4)cc3cc2c(=O)[nH]1 | % | 57 |
